- target or test system: recombinant integrin α4β1 (Homo sapiens, UniProt P05556+P13612)
- Construct: purchased R&D Systems 5397-A3-050
- Sequence (P13612 34-970 limits assumed): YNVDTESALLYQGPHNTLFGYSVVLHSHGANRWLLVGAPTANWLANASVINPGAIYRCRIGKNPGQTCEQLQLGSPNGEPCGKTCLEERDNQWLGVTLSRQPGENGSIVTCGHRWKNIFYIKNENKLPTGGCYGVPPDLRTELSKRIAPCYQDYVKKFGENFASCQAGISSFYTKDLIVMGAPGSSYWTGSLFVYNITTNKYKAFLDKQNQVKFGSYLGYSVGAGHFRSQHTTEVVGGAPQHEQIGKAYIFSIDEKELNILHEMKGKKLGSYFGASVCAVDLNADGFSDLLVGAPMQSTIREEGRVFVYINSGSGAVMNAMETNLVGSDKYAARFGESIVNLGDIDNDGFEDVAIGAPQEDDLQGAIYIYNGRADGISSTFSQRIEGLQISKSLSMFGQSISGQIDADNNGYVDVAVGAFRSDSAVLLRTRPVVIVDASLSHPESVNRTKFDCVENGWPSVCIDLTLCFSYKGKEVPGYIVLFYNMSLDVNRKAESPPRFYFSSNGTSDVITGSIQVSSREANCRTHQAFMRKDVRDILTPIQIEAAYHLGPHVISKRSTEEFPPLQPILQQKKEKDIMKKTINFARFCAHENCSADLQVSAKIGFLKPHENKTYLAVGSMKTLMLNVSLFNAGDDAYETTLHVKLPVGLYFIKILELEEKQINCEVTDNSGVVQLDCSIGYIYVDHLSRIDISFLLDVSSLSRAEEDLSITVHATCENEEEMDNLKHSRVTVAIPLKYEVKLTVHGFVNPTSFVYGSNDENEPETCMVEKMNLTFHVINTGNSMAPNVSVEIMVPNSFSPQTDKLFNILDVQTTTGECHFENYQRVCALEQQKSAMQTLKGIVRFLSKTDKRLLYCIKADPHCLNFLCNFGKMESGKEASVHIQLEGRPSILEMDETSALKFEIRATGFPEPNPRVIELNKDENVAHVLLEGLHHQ
- Sequence (P05556 21-728 limits assumed): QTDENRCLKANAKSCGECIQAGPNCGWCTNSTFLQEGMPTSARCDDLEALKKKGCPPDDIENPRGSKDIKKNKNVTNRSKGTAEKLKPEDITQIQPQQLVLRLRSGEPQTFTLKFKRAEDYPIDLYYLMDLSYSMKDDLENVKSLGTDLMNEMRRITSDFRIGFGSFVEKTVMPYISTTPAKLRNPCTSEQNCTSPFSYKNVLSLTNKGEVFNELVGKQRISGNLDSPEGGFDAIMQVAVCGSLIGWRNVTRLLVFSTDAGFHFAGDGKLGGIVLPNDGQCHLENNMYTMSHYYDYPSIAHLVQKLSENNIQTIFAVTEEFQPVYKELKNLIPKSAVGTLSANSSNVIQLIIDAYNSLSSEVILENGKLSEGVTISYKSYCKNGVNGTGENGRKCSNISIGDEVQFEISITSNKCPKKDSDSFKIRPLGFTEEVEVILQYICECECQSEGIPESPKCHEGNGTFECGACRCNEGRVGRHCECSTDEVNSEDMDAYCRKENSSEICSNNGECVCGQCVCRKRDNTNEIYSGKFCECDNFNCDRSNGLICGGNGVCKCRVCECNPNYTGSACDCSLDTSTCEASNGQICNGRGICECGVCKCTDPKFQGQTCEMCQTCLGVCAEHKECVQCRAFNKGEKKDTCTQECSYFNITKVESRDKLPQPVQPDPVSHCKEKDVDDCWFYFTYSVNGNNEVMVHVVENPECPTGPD
- procedure text: Integrin α4β1—VCAM-1 competition ELISA
- Assay type: binding
- details: read-out: ELISA a4b1 Assay IC50
pIC50: −log10 of the molar value.
We begin with a simple list: items and their reported pIC50.

smiles str: CC(C)C[C@@H]1NC(=O)C[C@H](CCCCN)NC(=O)[C@H](Cc2ccccc2-c2ccc(N3CCNCC3)cc2)NC(=O)[C@@H]2CCCN2[C@H](C(=O)NC(C)(C)C)[C@H](C)NC(=O)[C@H]([C@@H](C)O)NC(=O)[C@H](CC(=O)O)NC1=O
target or test system: recombinant integrin α4β1 (Homo sapiens, UniProt P05556+P13612)
pIC50: 5.94

smiles str: CC(C)C[C@@H]1NC(=O)[C@H]2C[C@H](O)CN2C(=O)[C@H](Cc2cscn2)NC(=O)[C@@H]2CCCN2[C@H](C(=O)NC(C)(C)C)[C@H](C)NC(=O)[C@H]([C@@H](C)O)NC(=O)[C@H](CC(=O)O)NC1=O
target or test system: recombinant integrin α4β1 (Homo sapiens, UniProt P05556+P13612)
pIC50: 6.66

smiles str: CC(C)C[C@@H]1NC(=O)CN(C)C(=O)[C@H](Cc2ccc(-c3ccccc3)cc2)NC(=O)[C@@H]2CCCN2[C@H](C(=O)NC(C)(C)C)[C@H](C)NC(=O)[C@H]([C@@H](C)O)NC(=O)[C@H](CC(=O)O)NC1=O
target or test system: recombinant integrin α4β1 (Homo sapiens, UniProt P05556+P13612)
pIC50: 5.86

smiles str: CC(C)C[C@@H]1NC(=O)[C@H]2C[C@@H](O)CN2C(=O)[C@H](Cc2ccc(O)cc2)NC(=O)[C@@H]2CCCN2[C@H](C(=O)NC(C)(C)C)[C@H](C)NC(=O)[C@H]([C@@H](C)O)NC(=O)[C@H](CC(=O)O)NC1=O
target or test system: recombinant integrin α4β1 (Homo sapiens, UniProt P05556+P13612)
pIC50: 7.44

smiles str: CC(C)C[C@@H]1NC(=O)C[C@H](CCCCN)NC(=O)C2(Cc3ccccc3C2)NC(=O)[C@@H]2CCCN2[C@H](C(=O)NC(C)(C)C)[C@H](C)NC(=O)[C@H]([C@@H](C)O)NC(=O)[C@H](CC(=O)O)NC1=O
target or test system: recombinant integrin α4β1 (Homo sapiens, UniProt P05556+P13612)
pIC50: 5.78

smiles str: CC(C)C[C@@H]1NC(=O)c2ccc(-c3cccc4ncccc34)c(c2)CNC(=O)[C@@H]2CCCN2[C@H](C(=O)NC(C)(C)C)[C@H](C)NC(=O)[C@H]([C@@H](C)O)NC(=O)[C@H](CC(=O)O)NC1=O
target or test system: recombinant integrin α4β1 (Homo sapiens, UniProt P05556+P13612)
pIC50: 7.52

smiles str: CC(C)C[C@@H]1NC(=O)[C@H]2CCCCN2C(=O)[C@H](Cc2cccc3ccccc23)NC(=O)[C@@H]2CCCN2[C@H](C(=O)NC(C)(C)C)[C@H](C)NC(=O)[C@H]([C@@H](C)O)NC(=O)[C@H](CC(=O)O)NC1=O
target or test system: recombinant integrin α4β1 (Homo sapiens, UniProt P05556+P13612)
pIC50: 7.17

smiles str: C=CCOc1ccc(C[C@@H]2NC(=O)[C@@H]3CCCN3[C@H](C(=O)NC(C)(C)C)[C@H](C)NC(=O)[C@H]([C@@H](C)O)NC(=O)[C@H](CC(=O)O)NC(=O)[C@H](CC(C)C)NC(=O)CNC2=O)cc1
target or test system: recombinant integrin α4β1 (Homo sapiens, UniProt P05556+P13612)
pIC50: 5.86
